Every entry's value here was drawn from paper PMC548356.

# pIC50 annotations
Biological target: Poa1p (Saccharomyces cerevisiae)
Assay: Inhibition of Appr1p phosphatase activity of Poa1p
Type: biochemical
Conditions: 35 nM Poa1p, 5 μM Appr1p, 2 h
pIC50: −log10 of the molar value.
Readout Kind: pIC50

- Nc1ncnc2c1ncn2[C@@H]1O[C@H](COP(=O)(O)OP(=O)(O)OC[C@H]2O[C@@H](n3cnc4c(N)ncnc43)[C@H](O)[C@@H]2O)[C@@H](O)[C@H]1O [AppA]: 3.00
- NC(=O)c1ccc[n+]([C@@H]2O[C@H](COP(=O)([O-])OP(=O)(O)OC[C@H]3O[C@@H](n4cnc5c(N)ncnc54)[C@H](O)[C@@H]3O)[C@@H](O)[C@H]2O)c1 [NAD]: 2.82
- Nc1ncnc2c1ncn2[C@@H]1O[C@H](COP(=O)(O)OP(=O)(O)OC[C@H]2OC(O)[C@H](O)[C@@H]2O)[C@@H](O)[C@H]1O (stereo partly shown) [ADPR, ADP-ribose]: 4.52
- NC(=O)c1ccc[n+]([C@H]2O[C@@H](COP(=O)([O-])OP(=O)(O)OC[C@H]3O[C@@H](n4cnc5c(N)ncnc54)[C@H](OP(=O)(O)O)[C@@H]3O)[C@H](O)[C@@H]2O)c1 [NADP]: 2.70

---

Test system: Hal2p
Assay: Inhibition of Appr1p phosphatase activity of Hal2p
Assay type: biochemical, Saccharomyces cerevisiae
Settings: Appr1p well below KM; data not shown
Readout Kind: Inhibition of Appr1p phosphatase activity of Hal2p (in words)

• Nc1ncnc2c1ncn2[C@@H]1O[C@H](CO)[C@@H](OP(=O)(O)O)[C@H]1O [3′pA] = inhibited
• O=C[C@H](O)[C@H](O)[C@H](O)COP(=O)(O)O [ribose-5p, ribose 5-phosphate] = inhibited
• Nc1nc2c(ncn2[C@@H]2O[C@H](CO)[C@@H](O)[C@H]2OP(=O)(O)O)c(=O)[nH]1 [2′pG] = inhibited

---

Tested on: Hal2p
Assay: Inhibition of Appr1p phosphatase activity of Hal2p
Type: biochemical, Saccharomyces cerevisiae
Details: Appr1p well below KM; data not shown
Readout Kind: Inhibition of Appr1p phosphatase activity of Hal2p (in words)

• Nc1ncnc2c1ncn2[C@@H]1O[C@H](COP(=O)(O)O)[C@@H](OP(=O)(O)O)[C@H]1O [pAp] = inhibited
• Nc1ncnc2c1ncn2[C@@H]1O[C@H](COP(=O)(O)OP(=O)(O)OC[C@H]2OC(O)[C@H](O)[C@@H]2O)[C@@H](O)[C@H]1O (stereo partly drawn) [ADPR, ADP-ribose] = inhibited
• NC(=O)c1ccc[n+]([C@H]2O[C@@H](COP(=O)([O-])OP(=O)(O)OC[C@H]3O[C@@H](n4cnc5c(N)ncnc54)[C@H](OP(=O)(O)O)[C@@H]3O)[C@H](O)[C@@H]2O)c1 [NADP] = inhibited

---

Biological target: Poa1p (Saccharomyces cerevisiae)
Sequence (P38218 1-177): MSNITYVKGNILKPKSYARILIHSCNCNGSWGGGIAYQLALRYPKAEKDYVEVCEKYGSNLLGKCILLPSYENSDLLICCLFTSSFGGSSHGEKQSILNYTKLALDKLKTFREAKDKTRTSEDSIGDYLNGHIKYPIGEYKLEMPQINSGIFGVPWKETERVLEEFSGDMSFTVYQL
pKi: −log10 of the molar value.
Readout Kind: pKi

- Nc1ncnc2c1ncn2[C@@H]1O[C@H](COP(=O)(O)OP(=O)(O)OC[C@H]2OC(O)[C@H](O)[C@@H]2O)[C@@H](O)[C@H]1O (stereo partly shown) [ADPR, ADP-ribose]: 4.77
